- System: SJSA
- experimentSummary: Cell Viability Assay (CellTiter-Glo, ATP quantitation)
- Type: cell-based
- conditions: second value of the cell (SJSA cell viability, e.g. 72 hours); class symbol; read-out: FP/ SJSA IC50 (nM): SJSA IC50
- Procedure: Additionally, compounds were tested for activity at the HDM2 protein using the Cell Viability Assay, which measures the number of viable cells in culture after treatment with the inventive compound for a certain period of time e.g. 72 hours based on quantitation of the ATP present (Cell Viability. IC50). [CellTiter-Glo® Luminescent Cell Viability Assay from Promega].
endpointLabel: IC50

N#CC1(c2ccccc2OCCCC2(C(=O)O)CCC2)CCN(C(=O)[C@]2(Oc3csc(C(F)(F)F)c3)CCCN3C(=O)c4c(C(F)(F)F)ccnc4OCCCCCC[C@@H]32)CC1 ... 101 to 500 nM
COCCOc1ccccc1N1CCN(C(=O)[C@]2(Oc3csc(C(F)(F)F)c3)CCCN3C(=O)c4c(C(F)(F)F)ccnc4OCC/C=C/C[C@@H]32)CC1 ... 101 to 500 nM
O=C1c2c(C(F)(F)F)ccnc2OCCC/C=C\C[C@H]2N1CCC[C@@]2(Oc1csc(C(F)(F)F)c1)C(=O)N1CCN(c2ccccc2OCCO)CC1 ... 501 to 1000 nM
O=C1c2c(C(F)(F)F)ccnc2OCC/C=C/C[C@H]2N1CCC[C@@]2(Oc1csc(C(F)(F)F)c1)C(=O)N1CCN(c2ccccc2OCCO)CC1 ... 501 to 1000 nM
COCCOc1ccccc1N1CCN(C(=O)[C@]2(Oc3csc(C(F)(F)F)c3)CCCN3C(=O)c4c(C(F)(F)F)ccnc4OCCCC/C=C/C[C@@H]32)CC1 ... 1000 to 3000 nM

Q. Recorded IC50 of O=C1c2c(C(F)(F)F)ccnc2OCCCCCC[C@H]2N1CCC[C@@]2(Oc1csc(C(F)(F)F)c1)C(=O)N1CCN(c2ccccc2OCCO)CC1 , please.
A. 1000 to 3000 nM

Q. Please look up its IC50: O=C(O)CCCOc1ccccc1N1CCN(C(=O)[C@]2(Oc3csc(C(F)(F)F)c3)CCCN3C(=O)c4c(C(F)(F)F)ccnc4OCCC/C=C\C[C@@H]32)CC1
A. 101 to 500 nM

----------
- testTarget: HDM2 protein (Homo sapiens, UniProt Q00987)
- Sequence (Q00987 whole entry): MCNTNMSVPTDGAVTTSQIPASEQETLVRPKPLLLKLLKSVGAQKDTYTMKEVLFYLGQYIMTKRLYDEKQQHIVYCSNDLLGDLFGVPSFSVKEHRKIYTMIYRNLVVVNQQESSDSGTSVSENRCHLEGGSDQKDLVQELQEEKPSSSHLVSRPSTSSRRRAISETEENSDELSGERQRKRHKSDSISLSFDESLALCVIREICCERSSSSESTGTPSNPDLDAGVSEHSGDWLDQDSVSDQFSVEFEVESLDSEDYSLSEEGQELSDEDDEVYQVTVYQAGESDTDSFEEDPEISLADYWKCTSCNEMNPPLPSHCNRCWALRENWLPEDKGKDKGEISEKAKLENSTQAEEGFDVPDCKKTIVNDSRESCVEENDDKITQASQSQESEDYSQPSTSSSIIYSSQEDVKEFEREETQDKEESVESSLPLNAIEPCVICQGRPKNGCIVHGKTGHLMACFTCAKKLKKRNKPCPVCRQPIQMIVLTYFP
- experimentSummary: fluorescence polarization screening assay (FP IC50)
- Type: binding
- conditions: first value of the cell (FP); class symbol; read-out: FP/ SJSA IC50 (nM): FP IC50
Entries annotated with measured IC50

Completed entries (count: 5):
O=C(O)CCCOc1ccccc1N1CCN(C(=O)[C@]2(Oc3csc(C(F)(F)F)c3)CCCN3C(=O)c4c(C(F)(F)F)ccnc4OCCC/C=C\C[C@@H]32)CC1 [Compound 8] ... 1 to 100 nM
O=C1c2c(C(F)(F)F)ccnc2OCCCC[C@H]2N1CCC[C@@]2(Oc1csc(C(F)(F)F)c1)C(=O)N1CCN(c2ccccc2OCCO)CC1 [Compound 9] ... 1000 to 3000 nM
O=C1c2c(C(F)(F)F)ccnc2OCCC/C=C\C[C@H]2N1CCC[C@@]2(Oc1csc(C(F)(F)F)c1)C(=O)N1CCN(c2ccccc2OCCO)CC1 [Compound 4] ... 1 to 100 nM
O=C1c2c(C(F)(F)F)ccnc2OCCCCCC[C@H]2N1CCC[C@@]2(Oc1csc(C(F)(F)F)c1)C(=O)N1CCN(c2ccccc2OCCO)CC1 [Compound 5] ... 1 to 100 nM
O=C1c2c(C(F)(F)F)ccnc2OCC/C=C/C[C@H]2N1CCC[C@@]2(Oc1csc(C(F)(F)F)c1)C(=O)N1CCN(c2ccccc2OCCO)CC1 [Compound 2] ... 1 to 100 nM

Continue with the molecule presented below.
Q. Give the measured IC50 of N#CC1(c2ccccc2OCCCC2(C(=O)O)CCC2)CCN(C(=O)[C@]2(Oc3csc(C(F)(F)F)c3)CCCN3C(=O)c4c(C(F)(F)F)ccnc4OCCCCCC[C@@H]32)CC1 [Compound 13] .
A. 1 to 100 nM

----------
- testTarget: HDM2 protein (Homo sapiens, UniProt Q00987)
- experimentSummary: fluorescence polarization screening assay (FP IC50)
- Assay type: binding
- conditions: first value of the cell (FP); class symbol; read-out: FP/ SJSA IC50 (nM): FP IC50
Listing of entries alongside the reported IC50.

Q. For the compound shown here, O=C1c2c(C(F)(F)F)ccnc2OCCCCCCC[C@H]2N1CCC[C@@]2(Oc1csc(C(F)(F)F)c1)C(=O)N1CCN(c2ccccc2OCCO)CC1 , give the reported IC50.
A. 1 to 100 nM

Q. Which measured IC50 value corresponds to COCCOc1ccccc1N1CCN(C(=O)[C@]2(Oc3csc(C(F)(F)F)c3)CCCN3C(=O)c4c(C(F)(F)F)ccnc4OCC/C=C/C[C@@H]32)CC1 ?
A. 1 to 100 nM

Q. # get_value(readout='IC50', item= COCCOc1ccccc1N1CCN(C(=O)[C@]2(Oc3csc(C(F)(F)F)c3)CCCN3C(=O)c4c(C(F)(F)F)ccnc4OCCCC/C=C/C[C@@H]32)CC1 )
A. 1 to 100 nM
